System: NCI-H522 lung
Assay: NCI-60 one-dose screen, 48 h (100 = growth as untreated, 0 = no growth, -100 = all killed)
Conditions: 10 µM unless noted
Compounds without any hit were thinned out: in the full panel of roughly 83,000, 20% have a hit.
Assign labels as follows, please: met for growth below 80%; not met for growth equal to or exceeding 80%.

Past entries and their recorded results:
- molecule: "COc1ccc(C2C(C#N)=C(N)Oc3c2sc2c(Br)cccc32)cc1 (stereo unspecified)"
  cat: "met"
- molecule: "C[N+](C)(C/C=C/c1ccccc1)Cc1ccccc1"
  cat: "not met"
- molecule: "CCCCCSB(SCCCCC)c1ccccc1"
  cat: "not met"
- molecule: "CN1CCN(CCCOC(=O)c2c3c(n4ccccc24)C(=O)c2ncccc2C3=O)CC1"
  cat: "met"
- molecule: "Clc1nccc2c(-c3csc(-c4c[nH]c5ccccc45)n3)c[nH]c12"
  cat: "met"

Hi there! Is growth for O=C1Nc2ccc(F)cc2/C1=N/c1nnc(Sc2ccccc2)s1 below 80%, do you know?
met

Criterion: growth strictly below 80%. Is it met by CCN(CC)CCOc1ccc(Nc2ncc3cc(-c4ccc(O)cc4)c(=O)n(C)c3n2)cc1 ?
met

Please check: growth for c1ccc2cc(Cn3c[n+](Cc4ccc5ccccc5c4)c4ccccc43)ccc2c1 , strictly under 80% or not?
met

###

Tested on: CAKI-1 renal
Experiment: NCI-60 one-dose screen, 48 h
Settings: 10 µM unless noted
Compounds without any hit were thinned out: in the full panel of roughly 83,000, 20% have a hit. Calls of active or inactive are those of the source. How the source made its calls: active means growth percent below 10; inactive means the rest.
I would appreciate it if you answered using one of these outcomes: active, inactive

Sample answers from the record:
- molecule: "COc1ccc(C2CC(c3ccc4c(c3)OCO4)=Nc3c(N)ncnc3N2)cc1 (stereo not given)"
  system_name: "CAKI-1 renal"
  cat: "inactive"
- molecule: "Nc1n[nH]c2ccc([C@@H]3Nc4cc5[nH]ncc5cc4[C@H]4C5CCC(C5)[C@@H]34)cc12 (stereo not given in full)"
  system_name: "CAKI-1 renal"
  cat: "inactive"
- molecule: "COc1ccc2c(c1)c(-c1nonc1-c1c[nH]c3ccc(Br)cc13)cn2C"
  system_name: "CAKI-1 renal"
  cat: "inactive"
- molecule: "CC(=O)N(Cc1ccccc1)c1nc2ccc(O)c(CN(C)C)c2s1"
  system_name: "CAKI-1 renal"
  cat: "inactive"
- molecule: "CCOC(=O)c1c2c(n3ccccc13)C(=O)c1ncccc1C2=O"
  system_name: "CAKI-1 renal"
  cat: "active"

Tell me the assay call for CC(=O)c1cc(-c2ccccc2N)n(-c2ccc3c(c2)OCO3)c1C please.
inactive

Field: outcome | Entry: N=C(N)c1ccc(-c2ccc(-c3ccc(Cl)cc3Cl)s2)cc1F
active

Outcome? O=[N+]([O-])/C(=C\c1ccco1)c1ccccc1Cl
inactive

Recorded call for COc1cc(C(=O)/C=C/c2c(-c3cccs3)nc3ccccn23)cc(OC)c1OC ?
active

How was CCOC(=O)c1cn2ncnc(Oc3ccc(NC(=O)NC4CC4)c(F)c3)c2c1C classified in this test?
inactive

###

System: TK-10 renal
Test: NCI-60 one-dose screen, 48 h (100 = growth as untreated, 0 = no growth, -100 = all killed)
Conditions: 10 µM unless noted
Compounds without any hit were thinned out: in the full panel of roughly 83,000, 20% have a hit. The source made the active and inactive calls. The calls were made as follows: active = growth percent below 10; inactive = the rest.
property_name: growth

Reference set, count: 4
- compound: "Oc1c(Cl)cc(Cl)c2ccc(Cn3cc(-c4cccc(C(F)(F)F)c4)nn3)nc12"
  property_name: "growth"
  value_measured: "99.7% (inactive)"
- compound: "O=C1CCC(C(=O)NN(c2ccccc2)c2ccccc2)N1 (stereo not given)"
  property_name: "growth"
  value_measured: "82.8% (inactive)"
- compound: "COc1cc2cc(NCc3ccc(OC(F)F)cc3)nc(C)c2cc1OC"
  property_name: "growth"
  value_measured: "54.1% (inactive)"
- compound: "COc1ccc(-c2cn(-c3ccc(Cl)cc3)c(SCC(=O)c3ccc([N+](=O)[O-])cc3)n2)cc1"
  property_name: "growth"
  value_measured: "55.9% (inactive)"

Record C/C(=C(/c1ccc(Cl)cc1)c1ccc(OCCCN(C)C)cc1)c1ccc(Cl)cc1 : what is its growth with TK-10 renal?
103% (inactive)

Give recorded growth with TK-10 renal for the following compound: S=c1ssnc1-c1cccs1
99.5% (inactive)

What growth appears in the records for this compound with TK-10 renal? CC1=NN(c2ccc(Cl)cc2)CC1(C)N=O (stereo not given)
105% (inactive)

Fill in the recorded growth for this compound, with TK-10 renal as test system: Cc1[nH]c(/C=C/C(=O)c2ccc(C(F)(F)F)c(F)c2)c(C)c1C(=O)NCC(C)C
109% (inactive)

# returns recorded growth (system: TK-10 renal) for Nc1ccc([N+](=O)[O-])cc1N=C/C=C/c1ccccc1
79.8% (inactive)

What growth appears in the records for this compound with TK-10 renal? COP(=O)(OC)c1nnn(-c2cccc([N+](=O)[O-])c2)c1C
99% (inactive)

###

Test system: SF-268 CNS
Experiment: NCI-60 one-dose screen, 48 h
Conditions: 10 µM unless noted
The panel holds about 83,000 compounds, 20% with a hit somewhere; the sample as a whole holds those more often. Activity calls are given as the source filed them. Rule for the calls: active = growth percent below 10; inactive = the rest.
Answer with one of the outcomes given here: active, inactive

// known answers, use as guide
- molecule: "COc1cc(-c2nc(SCCC(C)C)nc(N3CCOCC3)c2C#N)cc(OC)c1OC"
  cat: "inactive"
- molecule: "CC(C(=O)O)n1c(O)c(C=Nc2cccnc2)sc1=S (configuration not stated)"
  cat: "inactive"
- molecule: "COc1cc2c3c(n(CCCCNCCCn4c5c(c6cc(OC)c(OC)cc6c4=O)C(=O)c4cc6c(cc4-5)OCO6)c(=O)c2cc1OC)-c1cc2c(cc1C3=O)OCO2"
  cat: "inactive"
- molecule: "O=C(O)c1cccc(N/C=C/C(=O)c2cc3cc(Br)ccc3oc2=O)c1"
  cat: "inactive"
- molecule: "N#C/C(=C\\c1ccc(-c2ccc(Cl)cc2)o1)c1ccc(Cl)cc1"
  cat: "inactive"
- molecule: "CCOC(=O)c1c(NC(=O)c2ccc(OC)cc2)sc2c(CN(C)C)c(O)ccc12"
  cat: "inactive"

Just curious, what result did CC[C@@H](c1ccc2cc(OC)ccc2c1)C(C)(C)C(=O)F get here?
inactive

Could you check what this test reported for COc1cc(C(=O)/C=C/c2c(-c3cccs3)nc3ccccn23)cc(OC)c1OC ?
inactive

Lab log entry: COc1ccc2c(c1)c(-c1cc(-c3cn(C)c4ccc(OC)cc34)on1)cn2C — outcome as called in the assay?
inactive

Hi team, can someone confirm the assay call for O=C(Cn1nnc([N+](=O)[O-])n1)c1ccccc1 ?
inactive

What call does the record list for COc1ccc(-c2oc(=O)ccc2-c2cc(OC)c(OC)c(OC)c2)cc1O ?
inactive

Outcome? Cc1cccc(N2CCN(C(=S)c3ccc4c(c3)OCO4)CC2)c1
inactive

###

Listed below: growth values for each entry.
Tested on: NCI-H23 lung
Test: NCI-60 one-dose screen, 48 h (100 = growth as untreated, 0 = no growth, -100 = all killed)
Conditions: 10 µM unless noted
Compounds without any hit were thinned out: in the full panel of roughly 83,000, 20% have a hit. Activity calls are given as the source filed them. Rule for the calls: active = growth percent below 10; inactive = the rest.

Worked cases, growth given:
- molecule: "CCC(C)Nc1ccc(NC(C)CC)cc1 (stereo not given)"
  system_name: "NCI-H23 lung"
  growth: "74.5% (inactive)"
- molecule: "COc1ccc2cc(-c3cnc4nonc4n3)ccc2c1"
  system_name: "NCI-H23 lung"
  growth: "30.6% (inactive)"
- molecule: "N=C(N)SCc1cccc2c(CSC(=N)N)cccc12"
  system_name: "NCI-H23 lung"
  growth: "99.2% (inactive)"

Which growth reading was recorded for the molecule C=CCn1c(SCC(=O)Nc2ccc(C(=O)/C=C/c3cc(OC)c(OC)c(OC)c3)cc2)nnc1-c1cc(-c2ccc(OC)cc2)nc2ccccc12 ?
93.4% (inactive)

Consider the molecule C[C@@H]1O[C@@H](O[C@@H]2C[C@H](c3ccc4c(c3O)C(=O)C3=C(C4=O)[C@@]4(O)C(=O)C[C@](C)(O)C[C@@]4(O)C=C3)O[C@H](C)[C@H]2O)C[C@H](O)[C@@H]1O and give its measured growth.
93.2% (inactive)

###

Tested on: NCI-H522 lung
Experiment: NCI-60 one-dose screen, 48 h (100 = growth as untreated, 0 = no growth, -100 = all killed)
Conditions: 10 µM unless noted
Procedure: Growth inhibition of the NCI-H522 human Non-Small Cell Lung tumor cell line is measured as a screen for anti-cancer activity. Cells are grown in 96 well plates and exposed to the test compound for 48 hours. Compounds are tested at a single concentration, which is 10^-5 M for most compounds. The reported endpoint is percent growth (GI% or GIPRCNT), where numbers from 0 - 100% represent growth inhibition, and numbers from -100% - 0 represent cell death. […]
About 83,000 compounds went through this panel and 20% of them were active in at least one assay; those are over-represented in the sample as a whole. Active and inactive are the calls of the source. The calls were made as follows: active = growth percent below 10; inactive = the rest.
property_name: growth

Past entries and their recorded results:
- compound: "COc1ccc(/C=C/C(=O)c2cc3c(N)c(C(=O)Nc4ccc(OC)cc4)sc3nc2C)cc1"
  growth: "-29.6% (active)"
- compound: "COc1ccc(C(C)=O)cc1S(N)(=O)=O"
  growth: "75.6% (inactive)"
- compound: "CCn1cc(C(=O)N/N=C/c2ccc(Br)cc2)c(=O)c2cc(F)c(N3CCNC(C)C3)c(F)c21 (stereo not given)"
  growth: "78.5% (inactive)"

Read the next record carefully.
Requested field: growth. Item: O=C(/C=C/C12c3ccccc3C(c3ccccc31)C1C(=O)NC(=O)C12)c1ccc(F)cc1 (stereo not given)
2.09% (active)
